Values were extracted from ChEMBL document CHEMBL2331531.

Assign inhibition at 10 µM to each entry below.
molecular target: CYP1A2 (Homo sapiens, UniProt P05177); assay: Inhibition of CYP1A2 (unknown origin)-mediated phenaceten demethylation to acetaminophen at 10 uM relative to control; assay type: ADME; conditions: probe phenacetin (printed: phenaceten)
Sequence (P05177 whole entry): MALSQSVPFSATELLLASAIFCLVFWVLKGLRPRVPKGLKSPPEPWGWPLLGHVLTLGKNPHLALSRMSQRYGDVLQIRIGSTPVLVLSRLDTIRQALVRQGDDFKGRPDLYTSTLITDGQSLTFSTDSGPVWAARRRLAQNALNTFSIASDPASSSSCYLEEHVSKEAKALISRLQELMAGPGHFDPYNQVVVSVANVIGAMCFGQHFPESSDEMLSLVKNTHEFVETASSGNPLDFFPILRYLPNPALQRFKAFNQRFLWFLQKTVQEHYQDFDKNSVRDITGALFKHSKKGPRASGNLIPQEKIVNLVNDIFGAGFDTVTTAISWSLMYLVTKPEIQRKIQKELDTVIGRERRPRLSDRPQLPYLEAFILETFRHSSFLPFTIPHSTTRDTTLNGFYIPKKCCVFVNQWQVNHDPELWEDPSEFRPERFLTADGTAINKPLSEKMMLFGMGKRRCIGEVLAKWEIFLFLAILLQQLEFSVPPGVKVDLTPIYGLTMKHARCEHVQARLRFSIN
// units = %; emit number, no label

Answer with the recorded inhibition at 10 µM for the compound listed here: "COc1cccc(CN(CCN2CCCC2)C(=O)Nc2ccc(-c3cn[nH]c3)cc2)c1"
0

Quote inhibition at 10 µM reported for "COc1cccc(CN(CCN2CCOCC2)C(=O)Nc2ccc(-c3cn[nH]c3)cc2)c1" please.
-37

Annotate the compound "COc1cccc(CN(CCO)C(=O)Nc2ccc(-c3cn[nH]c3)cc2)c1" with its measured inhibition at 10 µM.
-23

Tell us which inhibition at 10 µM value is on record for "COc1cccc(CN(CCN(C)C)C(=O)Nc2ccc(-c3cn[nH]c3)cn2)c1"
-21

Specify reported inhibition at 10 µM for the compound shown: "CCN(Cc1cccc(OC)c1)C(=O)Nc1ccc(-c2cn[nH]c2)cc1O[C@H]1CCN(C)C1"
9

Please report the measured inhibition at 10 µM for CN(C)CCC(NC(=O)Nc1ccc(-c2cn[nH]c2)cc1)c1ccccc1 (configuration not stated)
-1

# return recorded inhibition at 10 µM for input "COc1cccc(CN(C)C(=O)Nc2ccc(-c3cn[nH]c3)cc2)c1"
9

Fill in reported inhibition at 10 µM for this entry: "COc1cccc(CN(CCN2CCCCC2)C(=O)Nc2ccc(-c3cn[nH]c3)cc2)c1"
18

Give inhibition at 10 µM for the following compound: "O=C(Nc1ccc(-c2cn[nH]c2)cc1)N(CCO)Cc1ccccc1"
9

For the compound "COc1cccc(CN(CCN(C)C)C(=O)Nc2ccc(-c3cn[nH]c3)cc2)c1" , give its reported inhibition at 10 µM.
-29

Quickly give me recorded inhibition at 10 µM for COc1cccc(C(CCO)NC(=O)Nc2ccc(-c3cn[nH]c3)cc2)c1 (configuration not stated)
3

Look up inhibition at 10 µM of O=C(Nc1ccc(-c2cn[nH]c2)cc1)NC(CCO)c1cccc(F)c1 (configuration not stated) and report it.
-2
